Where do the numbers come from? From PubChem BioAssay (NCATS).

Test: Quantitative High-Throughput drug screen in 47 multiple myeloma cell lines against the NCATS MIPE library collection: XG1_PLB cell viability assay (AID 1919866); also: nearly all actives have a fitted effect of over 35% in size
Details: CellTiter-Glo ATP, 48 h; series mostly up to 45.8 µM
Records with an inconclusive call do not appear. Calls of active or inactive are those of the source. Calls follow the shape of the dose curve; as a rule, active = well fitted cell-killing curve with a large enough effect; inconclusive = small, poorly fitted or top-dose-only effect, or effect the other way; inactive = no such curve, though single readings can be large or run the other way.
Outcome codes: 1 (yes) (active), 0 (no) (inactive)

>>> print(df.to_string())
                                    molecule  qualitative_label
 0                CCC1(c2ccccc2)C(=O)NCNC1=O            1 (yes)
 1               CN(C)c1nc(N(C)C)nc(N(C)C)n1             0 (no)
 2               NC(=O)OCC(COC(N)=O)c1ccccc1             0 (no)
 3   CCOC(=O)c1ncn2c1CN(C)C(=O)c1cc(F)ccc1-2             0 (no)
 4           CNCCCC12CCC(c3ccccc31)c1ccccc12            1 (yes)
 5  CC1(C)O[C@H]2CC(=O)OC[C@]23[C@H]2CC[C@@]4(C)[C@H](c5ccoc5)OC(=O)[C@H]5O[C@]54[C@]2(C)C(=O)C[C@@H]13             0 (no)
 6  CCC1(C)CC(=O)NC1=O (configuration not stated)             0 (no)
 7          Nc1nc2c(ncn2COC(CO)CO)c(=O)[nH]1            1 (yes)
 8        Cc1cc(C(C)(C)C)c(O)c(C)c1CC1=NCCN1             0 (no)
 9  NC(CO)C(=O)NNCc1ccc(O)c(O)c1O (configuration not stated)             0 (no)
10        NS(=O)(=O)c1cc2c(cc1Cl)NCNS2(=O)=O            1 (yes)
11               CC12CC3CC(C)(C1)CC(N)(C3)C2            1 (yes)

###

Test system: Dd2
Test: qHTS profiling for inhibitors of Plasmodium falciparum proliferation (AID 504749); also: nearly all actives have a fitted effect of over 60% in size; also: potency is read from the fitted curve at half-maximal effect
Settings: P. falciparum in erythrocytes, SYBR Green DNA, 72 h; series mostly up to 28.7 µM
Inconclusive results are not listed. Calls of active or inactive are those of the source. Calls follow the shape of the dose curve; as a rule, active = well fitted inhibition curve with a large enough effect; inconclusive = small, poorly fitted or top-dose-only effect; inactive = flat fitted curve, though single readings scatter.
Quantity Measured: Potency

>>> print(df.to_string())
                                   molecule  experimental_result
0    Clc1ccccc1C(c1ccccc1)(c1ccccc1)n1ccnc1    0.708 µM (active)
1               CC12CC3CC(C)(C1)CC(N)(C3)C2     5.01 µM (active)
2  CS(=O)(=O)Nc1ccc([N+](=O)[O-])cc1Oc1ccccc1             inactive
3                  Clc1ccc2nsnc2c1NC1=NCCN1             inactive
4                Cn1c(=O)c2[nH]cnc2n(C)c1=O             inactive
5  CC(C)(Oc1ccc(C2CC2(Cl)Cl)cc1)C(=O)O (configuration not stated)             inactive
6  COc1ccccc1N1CCN(CC(O)COc2cccc3ccccc23)CC1 (configuration not stated)             inactive

###

Experiment: Quantitative High-Throughput drug screen in 47 multiple myeloma cell lines against the NCATS MIPE library collection: UTMC2_PLB cell viability assay (AID 1919868); also: nearly all actives have a fitted effect of over 55% in size; also: potency is read from the fitted curve at half-maximal effect
Details: CellTiter-Glo ATP luminescence, 48 h; series mostly up to 45.8 µM
Inconclusive results are not listed. Activity calls are given as the source filed them. Calls come from the whole dose curve; as a rule, active = well fitted cell-killing curve with a large enough effect; inconclusive = small, poorly fitted or top-dose-only effect, or effect the other way; inactive = no such curve, though single readings can be large or run the other way.
Quantity Measured: Potency

In [3]: df
Out[3]:
                                    compound  experimental_result
 0     CC(=O)OCC(CCn1cnc2cnc(N)nc21)COC(C)=O             inactive
 1    CN1CCN(CCCN2c3ccccc3Sc3ccc(Cl)cc32)CC1     23.5 µM (active)
 2  COc1cc2nc(N3CCN(C(=O)c4ccco4)CC3)nc(N)c2cc1OC     11.8 µM (active)
 3  O=C(Nc1ccc([N+](=O)[O-])cc1Cl)c1cc(Cl)ccc1O     1.05 µM (active)
 4                     NC12CC3CC(CC(C3)C1)C2     8.33 µM (active)
 5      CN1CCC(=C2c3ccccc3CC(=O)c3sccc32)CC1     10.5 µM (active)
 6                   O=c1[nH]cc(F)c(=O)[nH]1             inactive
 7               CN(C)c1nc(N(C)C)nc(N(C)C)n1             inactive
 8  CC(C)(Oc1ccc(C2CC2(Cl)Cl)cc1)C(=O)O (stereo not drawn)             inactive
 9        CN1CCC(=C2c3ccccc3C=Cc3ccccc32)CC1     13.2 µM (active)
10  CCN1CCCC1CNC(=O)c1cc(S(=O)(=O)CC)c(N)cc1OC (stereo not drawn)             inactive
11                              NCCCCCC(=O)O             inactive
12         CCOC(=O)Nc1ccc(NCc2ccc(F)cc2)nc1N             inactive

###

Tested on: 7G8
Assay: qHTS profiling for inhibitors of Plasmodium falciparum proliferation (AID 504749); also: nearly all actives have a fitted effect of over 60% in size
Conditions: P. falciparum in erythrocytes, SYBR Green DNA, 72 h; series mostly up to 28.7 µM
Inconclusive results are not listed. The source made the active and inactive calls. The call rests on the fitted dose curve; in most records, active means well fitted inhibition curve with a large enough effect; inconclusive means small, poorly fitted or top-dose-only effect; inactive means flat fitted curve, though single readings scatter.
Classes used: active, inactive

                                    compound  qualitative_label
 0  CCCCc1oc2ccccc2c1C(=O)c1cc(I)c(OCCN(CC)CC)c(I)c1             active
 1       Cn1ccc2cc3c(cc21)CCN3C(=O)Nc1cccnc1             active
 2      CN1CCC(=C2c3ccccc3CC(=O)c3sccc32)CC1             active
 3           Cc1cc(C(C)(C)C)cc(C)c1CC1=NCCN1           inactive
 4  COc1ccccc1OCCNCC(O)COc1cccc2[nH]c3ccccc3c12 (configuration not stated)             active
 5                   O=c1[nH]cc(F)c(=O)[nH]1             active
 6  O=C1N(c2ccccc2)c2ccccc2C1(Cc1ccncc1)Cc1ccncc1             active
 7               CN(C)c1nc(N(C)C)nc(N(C)C)n1           inactive
 8  O=C(c1ccc(OCCN2CCCCC2)cc1)c1c(-c2ccc(O)cc2)sc2cc(O)ccc12             active
 9              CCOC(=O)C(C)(C)Oc1ccc(Cl)cc1           inactive
10             COc1ccc2[nH]cc(CCNC(C)=O)c2c1           inactive
11                         CN(C)C(=N)N=C(N)N           inactive

###

Experiment: qHTS drug screen for cell cycle checkpoint inhibitors in PARPi-resistant BRCA-mutant ovarian cancer cell lines. (AID 1963452)
Conditions: PEO1/OlaR viability, CellTiter-Glo luminescence, 96 h; active compounds read low
Note to self: use YES only for Z-AUC readings below 0.7; a reading exactly at 0.7 still gets NO.

>>> df
                                    compound  qualitative_label
 0       Cn1ccc2cc3c(cc21)CCN3C(=O)Nc1cccnc1                YES
 1  CC1COc2c(N3CCN(C)CC3)c(F)cc3c(=O)c(C(=O)O)cn1c23 (configuration not stated)                YES
 2  CN1C2CCC1CC(OC(=O)C(CO)c1ccccc1)C2 (configuration not stated)                YES
 3  Cc1ccc(-c2cc(C(F)(F)F)nn2-c2ccc(S(N)(=O)=O)cc2)cc1                 NO
 4  CCC1(C)CC(=O)NC1=O (configuration not stated)                 NO
 5  CC(C)C(=O)Nc1ccc([N+](=O)[O-])c(C(F)(F)F)c1                YES
 6               CN(C)CCOC(c1ccccc1)c1ccccc1                YES
 7           C[C@](N)(Cc1ccc(O)c(O)c1)C(=O)O                YES
 8               NC(=O)OCC(COC(N)=O)c1ccccc1                YES
 9  COc1ccc2c(c1)c(CC(=O)O)c(C)n2C(=O)c1ccc(Cl)cc1                 NO
10  CCCCc1oc2ccccc2c1C(=O)c1cc(I)c(OCCN(CC)CC)c(I)c1                YES
11  COc1ccc(C2CNC(=O)C2)cc1OC1CCCC1 (configuration not stated)                YES
